- Tested on: Metabotropic glutamate receptor 2 (Homo sapiens)
- Sequence (Q14416 whole entry): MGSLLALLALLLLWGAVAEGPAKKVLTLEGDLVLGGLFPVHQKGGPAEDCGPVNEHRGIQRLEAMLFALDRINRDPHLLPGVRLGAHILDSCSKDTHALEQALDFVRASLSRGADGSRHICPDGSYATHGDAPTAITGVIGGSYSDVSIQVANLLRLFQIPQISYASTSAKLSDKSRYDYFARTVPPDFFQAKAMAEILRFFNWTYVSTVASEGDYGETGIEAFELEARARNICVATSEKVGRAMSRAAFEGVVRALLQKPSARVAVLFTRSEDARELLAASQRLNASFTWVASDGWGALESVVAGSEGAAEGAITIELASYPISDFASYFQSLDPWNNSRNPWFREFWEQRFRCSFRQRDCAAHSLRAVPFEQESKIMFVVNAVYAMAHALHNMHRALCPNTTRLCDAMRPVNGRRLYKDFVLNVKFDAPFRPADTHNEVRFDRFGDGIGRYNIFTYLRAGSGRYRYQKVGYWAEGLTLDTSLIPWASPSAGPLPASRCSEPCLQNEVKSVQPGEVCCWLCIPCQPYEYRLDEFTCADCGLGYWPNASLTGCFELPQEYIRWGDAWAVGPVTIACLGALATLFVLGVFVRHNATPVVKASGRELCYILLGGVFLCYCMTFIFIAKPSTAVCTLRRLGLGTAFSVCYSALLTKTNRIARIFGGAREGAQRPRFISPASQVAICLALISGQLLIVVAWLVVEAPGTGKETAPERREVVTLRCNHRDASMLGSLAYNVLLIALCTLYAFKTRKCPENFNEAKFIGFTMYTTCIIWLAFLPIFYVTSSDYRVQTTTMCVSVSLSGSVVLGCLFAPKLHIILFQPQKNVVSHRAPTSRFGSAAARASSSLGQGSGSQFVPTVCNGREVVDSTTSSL
- Procedure text: Positive allosteric modulation of human mGlu2 receptor expressed in HEK293 cells assessed as calcium mobilization by fluorescence analysis
Outcome measure: EC50

>>> print(df.to_string())
                             entry_smiles   result
0  O=C1c2cc(OCc3ccccc3)nn2CCN1c1ccc(F)cc1  > 10 µM
1  O=C1c2cc(COc3ccccc3)nn2CCN1c1ccc(F)cn1  > 10 µM

---

- Tested on: Cytochrome P450 2C9 (Homo sapiens, UniProt P11712)
- Sequence (P11712 whole entry): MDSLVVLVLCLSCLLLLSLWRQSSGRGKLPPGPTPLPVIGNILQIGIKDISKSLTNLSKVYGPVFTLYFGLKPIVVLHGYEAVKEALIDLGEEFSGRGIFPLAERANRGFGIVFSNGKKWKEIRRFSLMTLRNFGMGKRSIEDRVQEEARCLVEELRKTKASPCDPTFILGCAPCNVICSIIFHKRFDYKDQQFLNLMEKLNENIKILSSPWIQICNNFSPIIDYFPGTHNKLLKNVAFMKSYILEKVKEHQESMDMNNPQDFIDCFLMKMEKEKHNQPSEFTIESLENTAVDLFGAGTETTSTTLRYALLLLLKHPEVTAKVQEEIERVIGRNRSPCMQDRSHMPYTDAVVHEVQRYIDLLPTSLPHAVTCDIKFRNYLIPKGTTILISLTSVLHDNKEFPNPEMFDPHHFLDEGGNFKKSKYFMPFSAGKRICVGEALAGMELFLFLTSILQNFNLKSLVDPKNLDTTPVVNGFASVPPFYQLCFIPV
Outcome measure: IC50

                             entry_smiles   result
0  O=C1c2cc(COc3ccccc3)nn2CCN1c1ccc(F)cn1  ≥ 30 µM

---

- Procedure text: Oral bioavailability in rat at 10 mg/kg
- Assay type: ADME, organism-based
- Test parameters: in vivo
Outcome measure: bioavailability

In [3]: df
Out[3]:
                             entry_smiles  outcome_measure  result
0  O=C1c2cc(COc3ccccc3)nn2CCN1c1ccc(F)cn1  bioavailability     88%

---

- Procedure text: Plasma clearance in rat at 2.5 mg/kg, iv
- Format: ADME, organism-based
Outcome measure: clearance (mL/min/kg)

                             entry_smiles  recorded_number
0  O=C1c2cc(COc3ccccc3)nn2CCN1c1ccc(F)cn1               19

---

- Procedure text: Cmax in dog at 5 mg/kg, po
- Assay type: ADME, organism-based, Canis lupus familiaris
- Set-up: dose 5 mg/kg, route oral
- Test parameters: in vivo
Outcome measure: Cmax (ng/mL)

In [3]: df
Out[3]:
                             entry_smiles  outcome_measure  result_units  recorded_number
0  O=C1c2cc(COc3ccccc3)nn2CCN1c1ccc(F)cn1             Cmax         ng/mL              519

---

- Procedure text: Oral bioavailability in dog at 5 mg/kg
- Type: ADME, organism-based, Canis lupus familiaris
- Test parameters: in vivo
Outcome measure: bioavailability (%)

>>> df
                             entry_smiles  result_units  recorded_number
0  O=C1c2cc(COc3ccccc3)nn2CCN1c1ccc(F)cn1             %               48

---

- Tested on: Cytochrome P450 2D6 (Homo sapiens, UniProt P10635)
- Sequence (P10635 whole entry): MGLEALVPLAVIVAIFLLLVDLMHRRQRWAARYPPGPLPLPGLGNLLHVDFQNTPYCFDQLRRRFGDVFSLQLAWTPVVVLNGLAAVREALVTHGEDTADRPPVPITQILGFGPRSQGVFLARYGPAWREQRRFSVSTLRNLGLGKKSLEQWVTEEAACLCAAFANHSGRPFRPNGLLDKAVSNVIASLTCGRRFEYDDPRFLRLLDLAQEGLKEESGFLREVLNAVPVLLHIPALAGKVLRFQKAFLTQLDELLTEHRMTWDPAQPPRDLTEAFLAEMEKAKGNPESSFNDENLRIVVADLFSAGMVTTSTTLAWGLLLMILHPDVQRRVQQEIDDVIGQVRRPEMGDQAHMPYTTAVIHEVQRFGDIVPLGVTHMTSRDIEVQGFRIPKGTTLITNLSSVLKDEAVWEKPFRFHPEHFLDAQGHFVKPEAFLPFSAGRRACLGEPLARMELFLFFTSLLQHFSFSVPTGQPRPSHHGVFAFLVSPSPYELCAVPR
pIC50: −log10 of the molar value.
Outcome measure: pIC50

>>> print(df.to_string())
                             entry_smiles  result
0  O=C1c2cc(COc3ccccc3)nn2CCN1c1ccc(F)cn1  ≤ 4.52

---

- Procedure text: Half life in rat at 2.5 mg/kg, iv
- Assay type: ADME, organism-based
- Test parameters: in vivo
Outcome measure: half-life

In [3]: df
Out[3]:
                             entry_smiles  outcome_measure  result
0  O=C1c2cc(COc3ccccc3)nn2CCN1c1ccc(F)cn1        half-life  96 min

---

- Tested on: Metabotropic glutamate receptor 5 (Homo sapiens)
- Sequence (P41594 21-1212 limits assumed): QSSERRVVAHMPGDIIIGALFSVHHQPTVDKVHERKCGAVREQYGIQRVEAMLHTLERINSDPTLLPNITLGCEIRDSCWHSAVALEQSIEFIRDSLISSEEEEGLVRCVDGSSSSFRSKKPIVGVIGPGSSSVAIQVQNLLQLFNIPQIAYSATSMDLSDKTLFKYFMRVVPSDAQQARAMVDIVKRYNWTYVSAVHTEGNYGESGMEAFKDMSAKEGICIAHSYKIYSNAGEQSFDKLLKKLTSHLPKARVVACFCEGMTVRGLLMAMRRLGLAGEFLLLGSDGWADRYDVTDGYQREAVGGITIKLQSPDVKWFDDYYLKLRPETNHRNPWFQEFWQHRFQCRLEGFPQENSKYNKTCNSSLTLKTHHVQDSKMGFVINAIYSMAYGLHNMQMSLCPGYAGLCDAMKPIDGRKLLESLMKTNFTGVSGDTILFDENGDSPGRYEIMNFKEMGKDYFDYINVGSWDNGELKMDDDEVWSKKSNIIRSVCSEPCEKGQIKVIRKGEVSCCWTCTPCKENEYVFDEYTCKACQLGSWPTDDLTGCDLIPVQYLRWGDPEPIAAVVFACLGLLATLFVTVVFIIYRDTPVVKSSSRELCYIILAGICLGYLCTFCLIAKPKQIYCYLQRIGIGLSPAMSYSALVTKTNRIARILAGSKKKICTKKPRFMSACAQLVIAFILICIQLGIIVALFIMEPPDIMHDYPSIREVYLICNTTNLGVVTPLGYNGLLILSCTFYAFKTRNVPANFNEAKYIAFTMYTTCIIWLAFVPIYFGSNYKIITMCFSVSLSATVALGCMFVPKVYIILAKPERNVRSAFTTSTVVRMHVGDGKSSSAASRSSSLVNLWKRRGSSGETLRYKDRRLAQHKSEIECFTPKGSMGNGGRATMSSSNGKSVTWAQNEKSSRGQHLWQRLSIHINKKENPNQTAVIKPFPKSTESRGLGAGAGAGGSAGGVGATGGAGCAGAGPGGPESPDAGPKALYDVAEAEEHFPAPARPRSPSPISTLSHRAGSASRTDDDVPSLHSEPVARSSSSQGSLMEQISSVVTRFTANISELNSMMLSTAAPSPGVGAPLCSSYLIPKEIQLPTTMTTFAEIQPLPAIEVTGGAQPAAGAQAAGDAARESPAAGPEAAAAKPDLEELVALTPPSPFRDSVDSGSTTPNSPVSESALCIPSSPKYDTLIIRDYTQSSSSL
- Procedure text: Positive allosteric modulation of human mGlu5 expressed in HEK293 cells assessed as glutamate-induced calcium mobilization relative to glutamate
- Type: functional, cell-based
Documented Emax across a set of compounds
Outcome measure: Emax

>>> print(df.to_string())
                                    compound  result
 0    O=C1c2cc(COc3cccnc3)nn2CCN1c1ccc(F)cc1     69%
 1    O=C1c2nc(COc3ccccc3)nn2CCN1c1ccc(F)cc1     65%
 2   O=C1c2cc(COc3ccccc3)nn2CCCN1c1ccc(F)cc1     79%
 3   O=C1c2cc(COc3ccccc3)nn2CCN1c1ccc(F)cc1F    101%
 4  CC(Oc1ccccc1)c1cc2n(n1)CCN(c1ccc(F)cc1)C2=O (stereo unspecified)     65%
 5  O=C1c2cc(COc3cccc(F)c3)nn2CCN1c1ccc(F)cn1     62%
 6   COc1ccc(N2CCn3nc(COc4ccccc4)cc3C2=O)cc1     58%
 7    O=C1c2cc(COc3ccccc3)nn2CCN1c1cccc(F)c1     81%
 8  O=C1c2cc(COc3ccc(F)cn3)nn2CCN1c1ccc(F)cc1     52%
 9    O=C1c2cc(COc3ccccc3)nn2CCN1c1ncc(F)cn1     72%
10       O=C1c2cc(COc3ccccc3)nn2CCN1c1ccncc1     72%
